Form field: melting point (one value per entry).

See these solved cases before continuing.
{"columns": ["COMPOUND", "VALUE"],
 "data": [
  ["CN(Cc1ccccc1)C(=O)c1cnc2c3c(c(F)cc2c1)C(=O)C(C#N)C=N3 (centres unmarked) [Example IX]", "267 to 269 °C"],
  ["CCOC(=O)C1C=Nc2c(ccc3c(N(C)C)c(C(=O)N(C)Cc4ccccc4)cnc23)C1=O (centres unmarked) [Example XV]", "169 to 170 °C"],
  ["CCCCN(CC)C(=O)c1cnc2c3c(ccc2c1)C(=O)C(C(=O)O)C=N3 (centres unmarked) [Example 2]", "236 to 237 °C"]
]}

// melting point lookup, compound = CCOC(=O)c1cnc2c3c(ccc2c1Cl)C(=O)C(C(C)=O)C=N3 (centres unmarked) [Example X] , result: 288 to 290 °C

According to the records, this compound O=C1c2ccc3cccnc3c2N=CC1S(=O)(=O)CC(F)(F)F (centres unmarked) [Example VI] displays melting point of 272 to 274 °C

Sure, the documented melting point for CN(Cc1ccc(F)cc1)C(=O)c1cnc2c3c(ccc2c1)C(=O)C([N+](=O)[O-])C=N3 (centres unmarked) [Example VII] is 294 to 296 °C

For record COCCOCCOC(=O)C1C=Nc2c(ccc3cccnc23)C1=O (centres unmarked) [Compound 8] the listed melting point is 164 to 165 °C

Documented melting point of O=C(O)C1C=Nc2c(ccc3cc(C(=O)N4CCc5ccccc5C4)cnc23)C1=O (centres unmarked) [Example XIV] : 171 to 182 °C
